Source listed as the supplement of paper PMC7877785.

test: self-splicing fitness, log relative to wild type (ln ratio); higher = more splicing; Tetrahymena group I intron in knt gene, E. coli kanamycin selection, DiMSum; sequences stand for … in CUCUCU…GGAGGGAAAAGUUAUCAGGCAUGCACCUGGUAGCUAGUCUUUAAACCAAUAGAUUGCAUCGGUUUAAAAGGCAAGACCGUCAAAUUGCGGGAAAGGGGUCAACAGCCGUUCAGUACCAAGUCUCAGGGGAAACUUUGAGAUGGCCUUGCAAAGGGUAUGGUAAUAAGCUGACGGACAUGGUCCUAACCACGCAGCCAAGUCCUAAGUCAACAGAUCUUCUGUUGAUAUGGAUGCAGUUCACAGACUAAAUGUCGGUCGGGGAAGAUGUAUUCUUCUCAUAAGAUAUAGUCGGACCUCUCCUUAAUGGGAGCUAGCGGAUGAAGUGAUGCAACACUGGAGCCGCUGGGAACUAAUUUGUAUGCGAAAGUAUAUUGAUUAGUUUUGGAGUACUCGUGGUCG; conditions: 37 °C;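 note: selection with 25 µg/mL kanamycin versus none on LB agar overnight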
Assign class by self-splicing fitness (ln): not lower than -2 means t; lower than -2 means f.

AUUGAGCAAUAUUACGUUAA    t
GCUUAGCAAUAUUACGACAU    t
GAUAAGCAAUAUUACGUCCC    t
AUCAAGCAAUAUUACGGAGC    t
GACUAGCAAUAUUACGCUUA    t

Hello, I need to know if GACUAGCAAUAUUACGCCUA has measured self-splicing fitness (ln) not below -2. Thanks! t

Hello, I need to know if CUGAAGCAAUAUUACGCUGU has measured self-splicing fitness (ln) not below -2. Thanks! f

----------
Parameter: self-splicing fitness (ln). Scope: all listed entries.
test: self-splicing fitness, log relative to wild type (ln ratio); higher = more splicing; Tetrahymena group I intron in knt gene, E. coli kanamycin selection, DiMSum; sequences stand for … in CUCUCU…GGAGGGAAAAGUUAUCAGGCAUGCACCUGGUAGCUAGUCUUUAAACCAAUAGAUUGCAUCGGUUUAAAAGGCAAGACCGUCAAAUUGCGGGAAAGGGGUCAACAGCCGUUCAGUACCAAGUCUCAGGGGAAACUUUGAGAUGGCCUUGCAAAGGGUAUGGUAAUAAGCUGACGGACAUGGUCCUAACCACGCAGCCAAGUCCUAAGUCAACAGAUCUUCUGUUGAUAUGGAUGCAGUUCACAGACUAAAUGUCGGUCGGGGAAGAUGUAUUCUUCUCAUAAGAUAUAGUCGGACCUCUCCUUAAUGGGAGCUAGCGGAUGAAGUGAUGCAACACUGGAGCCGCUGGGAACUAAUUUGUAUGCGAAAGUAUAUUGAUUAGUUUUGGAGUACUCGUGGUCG; settings: 30 °C
# answer = number (no unit)

CCAUAGCAAUAUUACGAGCU    -3.04
GCCGAGCAAUAUUACGUUCG    -2.72
GGCCAGCAAUAUUACGGCUU    -3.45
GAGGAGCAAUAUUACGGGGG    -3.09
GGGAAGCAAUAUUACGAUAC    -0.528

The sequence GAGGAGCAAUAUUACGGCUA showed self-splicing fitness (ln) equal to -1.75

The sequence CACCAGCAAUAUUACGACGC showed self-splicing fitness (ln) equal to -3.22

----------
experiment: self-splicing fitness, log relative to wild type (ln ratio); higher = more splicing; Tetrahymena group I intron in knt gene, E. coli kanamycin selection, DiMSum; sequences stand for … in CUCUCU…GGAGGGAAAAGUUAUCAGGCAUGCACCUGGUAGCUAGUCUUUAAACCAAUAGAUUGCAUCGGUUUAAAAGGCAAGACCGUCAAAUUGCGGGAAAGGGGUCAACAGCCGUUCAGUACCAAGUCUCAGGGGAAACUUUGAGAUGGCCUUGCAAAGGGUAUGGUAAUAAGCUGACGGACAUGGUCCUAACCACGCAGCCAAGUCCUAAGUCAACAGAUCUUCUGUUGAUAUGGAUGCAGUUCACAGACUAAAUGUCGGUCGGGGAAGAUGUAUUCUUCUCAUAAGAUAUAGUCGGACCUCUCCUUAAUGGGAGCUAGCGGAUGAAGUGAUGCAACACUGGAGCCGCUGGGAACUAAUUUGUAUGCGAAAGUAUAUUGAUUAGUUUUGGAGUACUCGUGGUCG; conditions: 30 °C
readout: self-splicing fitness (ln)
# answer = number (no unit)

Before answering, review these 5 worked examples.
ACAAAGCAAUAUUACGAACG    -1.1
AAGAAGCAAUAUUACGGUCA    -0.625
CUGGAGCAAUAUUACGAUUC    -2.02
CGACAGCAAUAUUACGUUCG    -2.52
AAAUAGCAAUAUUACGAAGA    -2.26

The sequence ACGGAGCAAUAUUACGUCGU showed self-splicing fitness (ln) equal to -2.98

The sequence GCGUAGCAAUAUUACGGCUC showed self-splicing fitness (ln) equal to 0.371

The sequence UGCGAGCAAUAUUACGAUCG showed self-splicing fitness (ln) equal to -2.97

----------
assay: self-splicing fitness, log relative to wild type (ln ratio); higher = more splicing; Tetrahymena group I intron in knt gene, E. coli kanamycin selection, DiMSum; sequences stand for … in CUCUCU…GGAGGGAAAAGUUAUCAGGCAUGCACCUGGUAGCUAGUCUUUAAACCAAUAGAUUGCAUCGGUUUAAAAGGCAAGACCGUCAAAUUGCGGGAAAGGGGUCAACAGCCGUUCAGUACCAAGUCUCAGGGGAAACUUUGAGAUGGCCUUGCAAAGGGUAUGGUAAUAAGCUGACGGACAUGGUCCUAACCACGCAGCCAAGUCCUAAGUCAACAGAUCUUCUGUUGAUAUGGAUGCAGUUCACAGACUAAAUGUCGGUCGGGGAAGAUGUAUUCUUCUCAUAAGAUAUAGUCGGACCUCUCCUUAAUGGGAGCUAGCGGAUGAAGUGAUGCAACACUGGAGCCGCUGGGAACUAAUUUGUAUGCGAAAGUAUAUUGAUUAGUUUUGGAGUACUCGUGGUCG; conditions: 37 °C
readout: self-splicing fitness (ln)

The sequence GACUAGCAAUAUUACGGACG showed self-splicing fitness (ln) equal to -1.85

The sequence AAUUAGCAAUAUUACGAGGG showed self-splicing fitness (ln) equal to -2.93

The sequence GAUGAGCAAUAUUACGUGAA showed self-splicing fitness (ln) equal to -1.91

The sequence CGUCAGCAAUAUUACGCUGU showed self-splicing fitness (ln) equal to -1.51

----------
experiment: self-splicing fitness, log relative to wild type (ln ratio); higher = more splicing; Tetrahymena group I intron in knt gene, E. coli kanamycin selection, DiMSum; sequences stand for … in CUCUCU…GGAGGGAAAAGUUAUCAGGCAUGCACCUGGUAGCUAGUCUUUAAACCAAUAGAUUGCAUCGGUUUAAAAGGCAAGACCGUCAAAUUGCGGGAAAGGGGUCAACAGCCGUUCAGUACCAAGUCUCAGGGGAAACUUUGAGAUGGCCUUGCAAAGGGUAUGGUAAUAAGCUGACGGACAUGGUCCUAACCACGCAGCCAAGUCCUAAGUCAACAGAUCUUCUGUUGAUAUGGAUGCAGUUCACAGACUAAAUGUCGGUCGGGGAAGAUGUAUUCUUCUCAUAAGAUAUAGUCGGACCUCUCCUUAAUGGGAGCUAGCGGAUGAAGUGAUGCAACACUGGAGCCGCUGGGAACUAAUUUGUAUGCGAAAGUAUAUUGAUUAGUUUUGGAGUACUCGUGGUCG; details: 37 °C
Parameter: self-splicing fitness (ln). Scope: all listed entries.
# answer = number (no unit)

Before answering, review these 10 worked examples.
UAAGAGCAAUAUUACGUACA    -1.59
CUCUAGCAAUAUUACGACUA    -1.71
CCCAAGCAAUAUUACGUGUC    -2.72
CGGCAGCAAUAUUACGGGAA    -1.97
ACCAAGCAAUAUUACGAGGA    -2.7
ACAAAGCAAUAUUACGAUUU    -0.399
CGUGAGCAAUAUUACGGCAG    -0.441
AAACAGCAAUAUUACGACCC    0.302
GCUCAGCAAUAUUACGUUUA    -0.861
GAACAGCAAUAUUACGAGCC    -1.09

The sequence ACAAAGCAAUAUUACGUAAC showed self-splicing fitness (ln) equal to -1.67

The sequence UUCCAGCAAUAUUACGAGUU showed self-splicing fitness (ln) equal to -1.6

The sequence AGCGAGCAAUAUUACGCAGA showed self-splicing fitness (ln) equal to -2.88

The sequence UACCAGCAAUAUUACGAUAU showed self-splicing fitness (ln) equal to -1.32

The sequence ACCAAGCAAUAUUACGGCGC showed self-splicing fitness (ln) equal to -0.413

The sequence UUACAGCAAUAUUACGGCCA showed self-splicing fitness (ln) equal to 0.128

The sequence GUGAAGCAAUAUUACGUCGU showed self-splicing fitness (ln) equal to -0.777

The sequence CUGUAGCAAUAUUACGUUAG showed self-splicing fitness (ln) equal to -1.77
